Each recorded value in this set is attributed to BindingDB's records for doi:10.1016/j.bmc.2007.01.010.

experimental_target: RAC-alpha serine/threonine-protein kinase [139-480,S378A,S381A,T450D,S473D] (Homo sapiens, UniProt P31749, S378A/S381A/S473D/T450D)
Construct: 139-480
Sequence (P31749 139-480 S378A/S381A/T450D/S473D): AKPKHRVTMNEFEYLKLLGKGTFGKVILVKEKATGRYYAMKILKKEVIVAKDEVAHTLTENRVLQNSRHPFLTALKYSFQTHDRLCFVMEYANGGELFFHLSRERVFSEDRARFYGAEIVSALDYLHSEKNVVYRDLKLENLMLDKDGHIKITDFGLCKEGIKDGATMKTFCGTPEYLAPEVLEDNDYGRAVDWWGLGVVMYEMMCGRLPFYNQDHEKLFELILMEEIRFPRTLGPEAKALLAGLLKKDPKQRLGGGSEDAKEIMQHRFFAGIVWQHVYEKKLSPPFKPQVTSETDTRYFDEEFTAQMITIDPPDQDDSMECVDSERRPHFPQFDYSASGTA
assay: Akt Kinase Assay
test_settings: pH 7.5; 22 °C
pIC50: −log10 of the molar value.
Below, each entry is listed with its recorded pIC50.
metric_name: pIC50

smiles_structure=Cc1n[nH]c2cnc(-c3cncc(OC[C@@H](N)Cc4c[nH]c5ccccc45)c3)cc12 metric_name=pIC50 recorded_value=9.47
smiles_structure=N[C@H](COc1cncc(-c2ccc3[nH]nc(Cl)c3c2)c1)Cc1c[nH]c2ccccc12 metric_name=pIC50 recorded_value=9.00
smiles_structure=N[C@H](COc1cncc(-c2ccc3[nH]nc(C(F)(F)F)c3c2)c1)Cc1c[nH]c2ccccc12 metric_name=pIC50 recorded_value=8.74
smiles_structure=N[C@H](COc1cncc(-c2cc3cn[nH]c3cc2[N+](=O)[O-])c1)Cc1c[nH]c2ccccc12 metric_name=pIC50 recorded_value=6.02

###

experimental_target: RAC-alpha serine/threonine-protein kinase [139-480,S378A,S381A,T450D,S473D] (Homo sapiens, UniProt P31749, S378A/S381A/S473D/T450D)
Construct: 139-480
assay: Akt Kinase Assay
test_settings: pH 7.5; 22 °C
Rule: IC50 below 50 nM gives t. Equal to or above 50 nM gives f.

smiles_structure=N[C@H](COc1cncc(-c2cc3c(-c4ccco4)n[nH]c3cn2)c1)Cc1ccccc1 discrete_label=t
smiles_structure=N[C@H](COc1cncc(-c2cc3c(Cl)n[nH]c3cn2)c1)Cc1ccccc1 discrete_label=f
smiles_structure=Cc1n[nH]c2c[n+]([O-])c(-c3cncc(OC[C@@H](N)Cc4ccccc4)c3)cc12 discrete_label=f
smiles_structure=N[C@H](COc1cncc(-c2cc3c(-c4ccccc4)n[nH]c3cn2)c1)Cc1ccccc1 discrete_label=t
smiles_structure=Cn1cccc1-c1n[nH]c2cnc(-c3cncc(OC[C@@H](N)Cc4ccccc4)c3)cc12 discrete_label=f
smiles_structure=N[C@H](COc1cncc(-c2cc3cn[nH]c3cn2)c1)Cc1ccccc1 discrete_label=f
smiles_structure=Nc1cc2[nH]nc(Cl)c2cc1-c1cncc(OC[C@@H](N)Cc2c[nH]c3ccccc23)c1 discrete_label=t
smiles_structure=Cc1n[nH]c2cnc(-c3cncc(OC[C@@H](N)Cc4ccccc4)c3)cc12 discrete_label=t
smiles_structure=C=Cc1n[nH]c2cnc(-c3cncc(OC[C@@H](N)Cc4ccccc4)c3)cc12 discrete_label=t
smiles_structure=N[C@H](COc1cncc(-c2cc3cn[nH]c3cn2)c1)Cc1c[nH]c2ccccc12 discrete_label=t
smiles_structure=N[C@H](COc1cncc(-c2ccc3[nH]ncc3c2)c1)Cc1c[nH]c2ccccc12 discrete_label=t
